Every entry's value here was drawn from patent US20140107316A1.

subject.of.test: folate receptors (FRs) (Homo sapiens)
Construct: FR-positive KB cells were heavily seeded into 24-well cell culture plates; endogenous in cells; host or cells: KB cells (human cervical carcinoma)
Sequence (P15328 25-234): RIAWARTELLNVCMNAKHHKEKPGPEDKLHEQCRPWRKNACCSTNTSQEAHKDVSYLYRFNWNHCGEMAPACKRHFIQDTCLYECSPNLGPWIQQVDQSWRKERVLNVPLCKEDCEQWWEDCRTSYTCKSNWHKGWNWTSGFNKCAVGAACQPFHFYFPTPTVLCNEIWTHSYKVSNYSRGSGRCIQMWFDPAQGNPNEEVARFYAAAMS
assay.overview: Relative affinity assay (3H-folic acid displacement on KB cells)
Format: binding
stated.conditions: compared to folic acid (relative affinity=1), 10% serum/FDRPMI
reported.metric: Relative Affinity
Respond numerically, and do not add a unit to the figure.

1. CCCC(=O)OCN(C(=O)[C@@H](NC(=O)[C@H]1CCCCN1C)C(C)CC)[C@H](C[C@@H](OC(C)=O)c1nc(C(=O)N[C@@H](Cc2ccc(O)cc2)C[C@H](C)C(=O)NNC(=O)OCCSSC[C@@H](NC(=O)[C@H](CC(=O)O)NC(=O)[C@H](CC(=O)O)NC(=O)[C@H](CCCNC(=N)N)NC(=O)[C@H](CC(=O)O)NC(=O)CC[C@H](NC(=O)c2ccc(NCc3cnc4nc(N)[nH]c(=O)c4n3)cc2)C(=O)O)C(=O)O)cs1)C(C)C (stereo partly drawn) [EC1548] : 0.23
2. CCCC(=O)OCN(C(=O)[C@@H](NC(=O)[C@H]1CCCCN1C)C(C)CC)[C@H](C[C@@H](OC(C)=O)c1nc(C(=O)N[C@@H](Cc2ccc(O)cc2)C[C@H](C)C(=O)NNC(=O)OCCSSC[C@@H](NC(=O)[C@@H](CC(=O)O)NC(=O)[C@@H](CC(=O)O)NC(=O)[C@@H](CCCNC(=N)N)NC(=O)[C@@H](CC(=O)O)NC(=O)CC[C@@H](NC(=O)c2ccc(NCc3cnc4nc(N)[nH]c(=O)c4n3)cc2)C(=O)O)C(=O)O)cs1)C(C)C (stereo partly drawn) [EC1299] : 0.29

Now for the molecule whose Relative Affinity we want.
### Prompt Record CCCC(=O)OCN(C(=O)[C@@H](NC(=O)[C@H]1CCCCN1C)C(C)CC)C(C[C@@H](OC(C)=O)c1nc(C(=O)N[C@@H](Cc2ccc(O)cc2)C[C@H](C)C(=O)NNC(=O)OCCSSC[C@@H](NC(=O)[C@@H](CC(=O)O)NC(=O)[C@H](CC(=O)O)NC(=O)[C@H](CCCNC(=N)N)NC(=O)[C@H](CC(=O)O)NC(=O)CC[C@H](NC(=O)c2ccc(NCc3cnc4nc(N)[nH]c(=O)c4n3)cc2)C(=O)O)C(=O)O)cs1)C(C)C (stereo partly drawn) [EC1549] : what is its Relative Affinity with folate receptors (FRs) (Homo sapiens)?
### Response 0.90

---

subject.of.test: folate receptors (FRs) (Homo sapiens)
Construct: FR-positive KB cells were heavily seeded into 24-well cell culture plates; endogenous in cells; host or cells: KB cells (human cervical carcinoma)
assay.overview: Relative affinity assay (3H-folic acid displacement on KB cells)
Assay type: binding
stated.conditions: compared to folic acid (relative affinity=1), 10% serum/FDRPMI
reported.metric: Relative Affinity

### Prompt What value of Relative Affinity has been reported for the following compound? CCCC(=O)OCN(C(=O)[C@@H](NC(=O)[C@H]1CCCCN1C)C(C)CC)[C@H](C[C@@H](OC(C)=O)c1nc(C(=O)N[C@@H](Cc2ccc(O)cc2)C[C@H](C)C(=O)NNC(=O)OCCSSC(C)(C)[C@@H](NC(=O)[C@@H](CC(=O)O)NC(=O)[C@@H](CC(=O)O)NC(=O)[C@@H](CCCNC(=N)N)NC(=O)[C@@H](CC(=O)O)NC(=O)CC[C@@H](NC(=O)c2ccc(NCc3cnc4nc(N)[nH]c(=O)c4n3)cc2)C(=O)O)C(=O)O)cs1)C(C)C (stereo partly shown) [EC1393]
### Response 0.25
